- Species on record: Canis lupus familiaris
- experiment_summary: Selectivity for COX1 over COX2 by canine whole blood assay
Entries get a class label from measured Ratio. See ranges: zone 1: < 10; zone 2: ≥ 10 and < 30; zone 3: ≥ 30

>>> label("CS(=O)(=O)c1ccc(-n2nc(C(F)(F)F)c(C#N)c2SCc2ccccc2)nc1")
"zone 2"

Qu. Classify this compound: CS(=O)(=O)c1ccc(-n2nc(C(F)(F)F)c(C#N)c2SC2CCCCC2)nc1
Ans. zone 3

Qu. Classify this compound: CS(=O)(=O)c1ccc(-n2nc(C(F)(F)F)c(C#N)c2Sc2ccccc2)nc1
Ans. zone 1

Qu. Classify this compound: C[C@@H]1CN(c2c(C#N)c(C(F)F)nn2-c2ccc(S(C)(=O)=O)cn2)C[C@H](C)O1
Ans. zone 3

Qu. Classify this compound: CCCCCSc1c(C#N)c(C(F)(F)F)nn1-c1ccc(S(C)(=O)=O)cn1
Ans. zone 2

Qu. Classify this compound: CC(C)C(C)Oc1c(C#N)c(C(F)(F)F)nn1-c1ccc(S(C)(=O)=O)cn1 (configuration not stated)
Ans. zone 3

Qu. Classify this compound: Cc1cccc(Oc2c(C#N)c(C(F)(F)F)nn2-c2ccc(S(C)(=O)=O)cn2)c1C
Ans. zone 1

Qu. Classify this compound: CS(=O)(=O)c1ccc(-n2nc(C(F)(F)F)c(C#N)c2OCC2CC=CCC2)nc1 (configuration not stated)
Ans. zone 3

Qu. Classify this compound: CC1CCCCC1Oc1c(C#N)c(C(F)(F)F)nn1-c1ccc(S(C)(=O)=O)cn1 (configuration not stated)
Ans. zone 3

###

IC50 for assorted compounds
- tgt: Prostaglandin G/H synthase 1 (Canis lupus familiaris, UniProt Q8HZR1)
- Sequence (Q8HZR1 whole entry): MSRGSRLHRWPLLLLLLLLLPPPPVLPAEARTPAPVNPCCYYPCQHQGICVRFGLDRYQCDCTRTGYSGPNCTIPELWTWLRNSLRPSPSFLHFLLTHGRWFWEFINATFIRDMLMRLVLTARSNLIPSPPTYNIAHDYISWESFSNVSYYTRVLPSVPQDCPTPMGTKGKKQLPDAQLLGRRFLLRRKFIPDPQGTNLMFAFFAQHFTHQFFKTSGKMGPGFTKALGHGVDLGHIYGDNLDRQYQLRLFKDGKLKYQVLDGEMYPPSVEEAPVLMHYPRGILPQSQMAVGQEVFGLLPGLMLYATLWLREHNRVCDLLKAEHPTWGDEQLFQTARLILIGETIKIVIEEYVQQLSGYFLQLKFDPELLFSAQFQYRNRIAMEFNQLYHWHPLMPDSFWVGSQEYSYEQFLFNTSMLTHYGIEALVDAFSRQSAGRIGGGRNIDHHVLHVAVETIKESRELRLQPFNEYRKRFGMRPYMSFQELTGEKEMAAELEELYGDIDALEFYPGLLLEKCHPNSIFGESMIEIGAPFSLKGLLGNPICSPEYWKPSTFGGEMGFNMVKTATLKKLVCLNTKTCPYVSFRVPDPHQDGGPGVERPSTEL
- experiment_summary: Inhibition of COX1 by canine whole blood assay
Provide only the numeric value, understood in µM.

Here are 3 compounds together with their reported answers.
>>> reported_result("CS(=O)(=O)c1ccc(-n2nc(C(F)(F)F)c(C#N)c2SCc2ccccc2F)nc1")
0.6
>>> reported_result("Cc1cccc(Oc2c(C#N)c(C(F)(F)F)nn2-c2ccc(S(C)(=O)=O)cn2)c1C")
0.1
>>> reported_result("CCCCCSc1c(C#N)c(C(F)(F)F)nn1-c1ccc(S(C)(=O)=O)cn1")
3.5

Qu. Entry CS(=O)(=O)c1ccc(-n2nc(C(F)(F)F)c(C#N)c2SC2CCCCC2)nc1 has what IC50?
Ans. 3.2

###

- Species on record: Canis familiaris
- assay_conditions: dog, in vivo, po, 5 mg/kg
- Description: AUC in Beagle dog at 5 mg/kg, po
value_kind: AUC (ng·h/mL)
Provide only the numeric value, understood in ng·h/mL.

Qu. Entry CC(C)Oc1cc(C(F)(F)F)nn1-c1ccc(S(C)(=O)=O)cn1 has what AUC?
Ans. 6980

###

- tgt: Prostaglandin G/H synthase 1 (Canis lupus familiaris, UniProt Q8HZR1)
- experiment_summary: Inhibition of COX1 by canine whole blood assay
value_kind: log10 IC50 (log10 of the value in nM)
Note the log scale: values are log10 of IC50 expressed in nM.

Here are 4 molecules together with their reported answers.
>>> reported_result("CC1CCC(Oc2c(C#N)c(C(F)(F)F)nn2-c2ccc(S(C)(=O)=O)cn2)C1 (stereo not given)")
3.88
>>> reported_result("CCOCCSc1c(C#N)c(C(F)(F)F)nn1-c1ccc(S(C)(=O)=O)cn1")
3.30
>>> reported_result("CS(=O)(=O)c1ccc(-n2nc(C(F)(F)F)c(C#N)c2OCC2CCCC2)nc1")
2.60
>>> reported_result("CS(=O)(=O)c1ccc(-n2nc(C(F)(F)F)c(C#N)c2OC2CCCCCC2)nc1")
3.90

Qu. Entry CS(=O)(=O)c1ccc(-n2nc(C(F)(F)F)c(C#N)c2SCc2ccccc2)nc1 has what log10 IC50?
Ans. 2.95

###

- experiment_summary: Tmax in Beagle dog at 2 mg/kg, po
- Type: ADME, organism-based, Canis lupus familiaris
- Design: dose 2 mg/kg, route oral
- assay_conditions: in vivo
value_kind: Tmax (h)
Provide only the numeric value, understood in h.

Qu. Entry CS(=O)(=O)c1ccc(-n2nc(C(F)(F)F)c(C#N)c2OCC2CC=CCC2)nc1 (stereo unspecified) has what Tmax?
Ans. 1

###

- tgt: Prostaglandin G/H synthase 1 (Canis lupus familiaris, UniProt Q8HZR1)
- experiment_summary: Inhibition of COX1 by canine whole blood assay
value_kind: pIC50
Hey, just a heads up that pIC50 is the negative log base 10 of the concentration in molar.

>>> reported_result("CS(=O)(=O)c1ccc(-n2nc(C(F)(F)F)c(C#N)c2OCC2CC=CCC2)nc1 (centres undefined)")
4.97
>>> reported_result("CC(C)C(C)Oc1c(C#N)c(C(F)(F)F)nn1-c1ccc(S(C)(=O)=O)cn1 (centres undefined)")
4.93

Qu. Entry C=C1CCC(COc2c(C#N)c(C(F)(F)F)nn2-c2ccc(S(C)(=O)=O)cn2)CC1 has what pIC50?
Ans. 4.53

Qu. Entry CCC(C)Sc1c(C#N)c(C(F)(F)F)nn1-c1ccc(S(C)(=O)=O)cn1 (centres undefined) has what pIC50?
Ans. 5.82

Qu. Entry CS(=O)(=O)c1ccc(-n2nc(C(F)(F)F)c(C#N)c2Oc2cccc3c2CCCC3)nc1 has what pIC50?
Ans. 7.00

Qu. Entry CS(=O)(=O)c1ccc(-n2nc(C(F)(F)F)c(C#N)c2Sc2ccccc2)nc1 has what pIC50?
Ans. 6.70

Qu. Entry CC1CCCCC1Oc1c(C#N)c(C(F)(F)F)nn1-c1ccc(S(C)(=O)=O)cn1 (centres undefined) has what pIC50?
Ans. 5.15

Qu. Entry CC(C)COc1c(C#N)c(C(F)(F)F)nn1-c1ccc(S(C)(=O)=O)cn1 has what pIC50?
Ans. 5.00

###

IC50 for assorted molecules
- tgt: Cyclooxygenase-2 (Canis lupus familiaris, UniProt Q8SPQ9)
Provide only the numeric value, understood in nM.

Here are 5 molecules together with their reported answers.
>>> reported_result("CCC(Oc1c(C#N)c(C(F)(F)F)nn1-c1ccc(S(C)(=O)=O)cn1)C(C)C (stereo not given)")
170
>>> reported_result("CS(=O)(=O)c1ccc(-n2nc(C(F)(F)F)c(C#N)c2OC2CCCCCC2)nc1")
70
>>> reported_result("CS(=O)(=O)c1ccc(-n2nc(C(F)(F)F)c(C#N)c2OCC2CCCC2)nc1")
60
>>> reported_result("CS(=O)(=O)c1ccc(-n2nc(C(F)(F)F)c(C#N)c2SCc2ccccc2F)nc1")
40
>>> reported_result("CS(=O)(=O)c1ccc(-n2nc(C(F)(F)F)c(C#N)c2Oc2cccc3c2CCCC3)nc1")
900

Qu. Entry CS(=O)(=O)c1ccc(-n2nc(C(F)(F)F)c(C#N)c2OC2CCCC2)nc1 has what IC50?
Ans. 210

Qu. Entry CS(=O)(=O)c1ccc(-n2nc(C(F)(F)F)c(C#N)c2SC2CCCCC2)nc1 has what IC50?
Ans. 100

###

- Species on record: Canis lupus familiaris
- experiment_summary: Selectivity for COX1 over COX2 by canine whole blood assay
Ratio for assorted compounds
// return just the number, without any unit appended

>>> reported_result("CC1CCC(Oc2c(C#N)c(C(F)(F)F)nn2-c2ccc(S(C)(=O)=O)cn2)C1 (stereo not given)")
47
>>> reported_result("C=C1CCC(COc2c(C#N)c(C(F)(F)F)nn2-c2ccc(S(C)(=O)=O)cn2)CC1")
340

Qu. Entry CC(C)CCCSc1c(C#N)c(C(F)(F)F)nn1-c1ccc(S(C)(=O)=O)cn1 has what Ratio?
Ans. 8.1

Qu. Entry CS(=O)(=O)c1ccc(-n2nc(C(F)(F)F)c(C#N)c2OC2CCC2)nc1 has what Ratio?
Ans. 46.3

Qu. Entry CC(C)COc1c(C#N)c(C(F)(F)F)nn1-c1ccc(S(C)(=O)=O)cn1 has what Ratio?
Ans. 92

Qu. Entry CS(=O)(=O)c1ccc(-n2nc(C(F)(F)F)c(C#N)c2Oc2cccc3c2CCCC3)nc1 has what Ratio?
Ans. 0.1

Qu. Entry CS(=O)(=O)c1ccc(-n2nc(C(F)(F)F)c(C#N)c2OC2CCCCCC2)nc1 has what Ratio?
Ans. 117

Qu. Entry CCOCCSc1c(C#N)c(C(F)(F)F)nn1-c1ccc(S(C)(=O)=O)cn1 has what Ratio?
Ans. 11.8

###

- tgt: Cyclooxygenase-2 (Canis lupus familiaris, UniProt Q8SPQ9)
- Sequence (Q8SPQ9 whole entry): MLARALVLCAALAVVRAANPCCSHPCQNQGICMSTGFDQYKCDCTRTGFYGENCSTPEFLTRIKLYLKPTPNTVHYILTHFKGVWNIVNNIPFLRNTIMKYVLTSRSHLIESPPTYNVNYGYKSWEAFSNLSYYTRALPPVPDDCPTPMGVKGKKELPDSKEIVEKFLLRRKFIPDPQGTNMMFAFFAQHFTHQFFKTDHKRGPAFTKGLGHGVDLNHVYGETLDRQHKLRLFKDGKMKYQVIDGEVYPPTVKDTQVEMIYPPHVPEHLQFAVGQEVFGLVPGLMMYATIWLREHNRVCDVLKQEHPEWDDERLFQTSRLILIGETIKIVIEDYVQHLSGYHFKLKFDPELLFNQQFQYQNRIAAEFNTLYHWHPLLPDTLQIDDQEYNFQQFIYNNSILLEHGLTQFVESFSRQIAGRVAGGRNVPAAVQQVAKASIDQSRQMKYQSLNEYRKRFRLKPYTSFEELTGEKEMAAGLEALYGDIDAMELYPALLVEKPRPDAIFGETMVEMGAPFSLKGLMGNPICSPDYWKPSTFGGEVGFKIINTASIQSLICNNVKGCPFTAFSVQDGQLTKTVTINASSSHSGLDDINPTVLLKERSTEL
pIC50: −log10 of the molar value.
value_kind: pIC50

Here are 5 compounds together with their reported answers.
>>> reported_result("CC1CCCCC1Oc1c(C#N)c(C(F)(F)F)nn1-c1ccc(S(C)(=O)=O)cn1 (stereo unspecified)")
6.70
>>> reported_result("CS(=O)(=O)c1ccc(-n2nc(C(F)(F)F)cc2OCc2cccc3ccccc23)nc1")
"< 6.30"
>>> reported_result("CCOCCSc1c(C#N)c(C(F)(F)F)nn1-c1ccc(S(C)(=O)=O)cn1")
6.77
>>> reported_result("C[C@@H]1CN(c2c(C#N)c(C(F)F)nn2-c2ccc(S(C)(=O)=O)cn2)C[C@H](C)O1")
6.85
>>> reported_result("COc1cc(C(F)(F)F)nn1-c1ccc(S(C)(=O)=O)cn1")
"< 6.30"

Qu. Entry CS(=O)(=O)c1ccc(-n2nc(C(F)(F)F)cc2OC2CCCC2)nc1 has what pIC50?
Ans. < 6.30

Qu. Entry CCC(CC)Oc1c(C)c(C(F)(F)F)nn1-c1ccc(S(C)(=O)=O)cn1 has what pIC50?
Ans. < 6.30

Qu. Entry CCCSc1c(C#N)c(C(F)(F)F)nn1-c1ccc(S(C)(=O)=O)cn1 has what pIC50?
Ans. > 7.30

Qu. Entry CC(C)Oc1c(Cl)c(C(F)(F)F)nn1-c1ccc(S(C)(=O)=O)cn1 has what pIC50?
Ans. < 6.30

Qu. Entry CCC(CC)Oc1c(C#N)c(C(F)(F)F)nn1-c1ccc(S(C)(=O)=O)cn1 has what pIC50?
Ans. > 6.30

Qu. Entry CC(C)COc1c(C#N)c(C(F)(F)F)nn1-c1ccc(S(C)(=O)=O)cn1 has what pIC50?
Ans. 6.96

Values from ChEMBL document CHEMBL1138171
